# Tested on: MDR1-MDCK cell monolayers
# EXPERIMENTAL DETAILS: MDCK-MDR1 permeability assay (BBB penetration potential)
# Type: in vitro ADME
# RUN CONDITIONS: dog, MDCK-MDR1, 120 min, 5 μM, pH 7.4
With a cut-off of 70%, any MDCK-MDR1: % Recov A-B strictly below it is called 1; any MDCK-MDR1: % Recov A-B meeting it or above is called -1.

These recorded examples may help you get a feel for the data.
Cc1ncc(-c2ccc(-c3ccc(O[C@H]4C[C@@H]5CCC[C@@H](N5)[C@H]4F)nn3)c(O)c2)s1 (single isomer, unassigned) [96-ENT2]	1
Oc1cc(-c2ccc3cncn3c2)ccc1-c1ccc(O[C@H]2C[C@@H]3CCC[C@@H](N3)[C@H]2F)nn1 (single isomer, unassigned) [85-ENT2]	1
Oc1cc(-n2ccnc2)ccc1-c1ccc(O[C@H]2C[C@@H]3CC(F)(F)[C@H](C2)N3)nn1 (single isomer, unassigned) [51-ENT2]	-1
Oc1cc(-c2cc[nH]n2)ccc1-c1ccc(O[C@@H]2C[C@H]3CCC[C@H](N3)[C@@H]2F)nn1 (single isomer, unassigned) [66-ENT1]	-1

# ---- query compound ----
Request: Consider Oc1cc(-c2ccc3nncn3c2)ccc1-c1ccc(O[C@H]2C[C@@H]3CCC[C@@H](N3)[C@H]2F)nn1 (single isomer, unassigned) [73-ENT2] . Does its MDCK-MDR1: % Recov A-B lie strictly below 70%?
Result: -1

====

# Test system: MDR1
# EXPERIMENTAL DETAILS: MDCK-MDR1 permeability assay (BBB penetration potential)
# Type: in vitro ADME
# RUN CONDITIONS: dog, MDCK-MDR1, pH 7.4, MDCK-MDR1: Papp A-B
Quick rule: Papp A→B at 120 min, 5 μM of at least 7 ×10⁻⁶ cm/s means 1, below that means -1.

Known results for compounds:
Oc1cc(-c2cn[nH]c2)ccc1-c1ccc(O[C@H]2C[C@@H]3CCC[C@@H](N3)[C@H]2F)nn1 (single isomer, unassigned)	-1
Oc1cc2cccnc2cc1-c1ccc(O[C@@H]2C[C@H]3CCC[C@H](N3)[C@@H]2F)nn1 (single isomer, unassigned)	1
Oc1cc(-c2cn[nH]c2)ccc1-c1ccc(O[C@@H]2C[C@H]3CC(F)(F)[C@@H](C2)N3)nn1 (single isomer, unassigned)	1
Cn1cc(-c2ccc(-c3ccc(O[C@@H]4C[C@H]5CC[C@H](N5)[C@@H]4F)nn3)c(O)c2)cn1 (single isomer, unassigned)	1

Please turn your attention to the following entry.
Request: Check the entry Cn1ccc(-c2ccc(-c3ccc(O[C@H]4C[C@@H]5CCC[C@@H](N5)[C@H]4F)nn3)c(O)c2)nc1=O (single isomer, unassigned) : does Papp A→B at 120 min, 5 μM equal or exceed 7 ×10⁻⁶ cm/s?
Result: -1

====

# Tested on: MDR1
# EXPERIMENTAL DETAILS: MDCK-MDR1 permeability assay (BBB penetration potential)
# Format: in vitro ADME
# RUN CONDITIONS: dog, MDCK-MDR1, pH 7.4, MDCK-MDR1: Efflux
Measured efflux ratio at 120 min, 5 μM, listed per entry.
When you answer, write just the number.

Cc1cc(-c2ccc(-c3ccc(O[C@H]4C[C@@H]5CCC[C@@H](N5)[C@H]4F)nn3)c(O)c2)co1 (single isomer, unassigned)	3
Oc1cc(-c2ccnnc2)ccc1-c1ccc(O[C@@H]2C[C@H]3CCC[C@H](N3)[C@@H]2F)nn1 (single isomer, unassigned)	20

// below: efflux ratio at 120 min, 5 μM requested for another molecule
Request: Entry Cc1ccc(-c2ccc(-c3ccc(O[C@H]4C[C@@H]5CCC[C@@H](N5)[C@H]4F)nn3)c(O)c2)s1 (single isomer, unassigned) has what efflux ratio at 120 min, 5 μM?
Result: 1
